Data provenance is PubChem BioAssay AID2060498.

Listing: viability, T/C of selected compounds
Tested on: 171881-019-R-J1-PDC tumor spheroids, viability;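 note: spheroids exposed to compounds for 7 days; 100% = DMSO vehicle control viability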
Assay: Anticancer human tumor 171881-019-R-J1-PDC patient-derived invasive breast carcinoma cell line growth inhibition [GQUAD]
Conditions: second compound 0.316 µM; first compound 0.316 µM; hits give low values; spheroids with HUVEC and MSC
observable: viability, T/C (%)

- Cc1cccc(N(C)C(=O)C2C(O)CCN2c2nc(C)cc(C(F)(F)F)c2C#N)c1 (stereo unspecified) + CN(C)c1ccc(Nc2c3ccc(NC(=O)CCN4CCCC4)cc3nc3cc(NC(=O)CCN4CCCC4)ccc23)cc1: 85.2
- Cc1cccc(N(C)C(=O)C2C(O)CCN2c2nc(C)cc(C(F)(F)F)c2C#N)c1 (stereo unspecified) + Cc1cnc(CNC(=O)c2c(=O)c3ccc(N4CCCN(C)CC4)nc3n3c2sc2ccccc23)cn1: 75.8
- COc1ccc([C@@H](O)c2cc(-c3ncnc4cc(N5CCOCC5)ccc34)c(F)cc2Cl)nn1 + Cc1cnc(CNC(=O)c2c(=O)c3ccc(N4CCCN(C)CC4)nc3n3c2sc2ccccc23)cn1: 40.5
- CCc1c2c(nc3ccc(O)cc13)-c1cc3c(c(=O)n1C2)COC(=O)[C@]3(O)CC + CN(C)c1ccc(Nc2c3ccc(NC(=O)CCN4CCCC4)cc3nc3cc(NC(=O)CCN4CCCC4)ccc23)cc1: 22
- CC(C)(O)C1CCC(Nc2ccc3ncc(-c4cccc(C(F)(F)F)c4)n3n2)CC1 (stereo unspecified) + Cc1[nH]c2ccc(F)cc2c1-c1nc2c3cccnc3c3ncccc3c2[nH]1: 66.2
- O=C(NO)c1cnc(N2CCN(S(=O)(=O)c3ccc4ccccc4c3)CC2)nc1 + Cc1cnc(CNC(=O)c2c(=O)c3ccc(N4CCCN(C)CC4)nc3n3c2sc2ccccc23)cn1: 33.8
- Nc1ccn(C2OC(CO)C(O)C2(F)F)c(=O)n1 (stereo unspecified) + Cc1cnc(CNC(=O)c2c(=O)c3ccc(N4CCCN(C)CC4)nc3n3c2sc2ccccc23)cn1: 44
- Cc1[nH]c2ccccc2c1CCNCc1ccc(/C=C/C(=O)NO)cc1 + Cc1cnc(CNC(=O)c2c(=O)c3ccc(N4CCCN(C)CC4)nc3n3c2sc2ccccc23)cn1: 0.83
- CC(C)(O)C1CCC(Nc2ccc3ncc(-c4cccc(C(F)(F)F)c4)n3n2)CC1 (stereo unspecified) + CN(C)c1ccc(Nc2c3ccc(NC(=O)CCN4CCCC4)cc3nc3cc(NC(=O)CCN4CCCC4)ccc23)cc1: 39.3
- COc1ncnc(C2CC2)c1-c1ncc2cnn(Cc3ccc(-c4nc(C(F)(F)F)cn4C(C)C)cc3)c2n1 + Cc1[nH]c2ccc(F)cc2c1-c1nc2c3cccnc3c3ncccc3c2[nH]1: 75.4
- Cc1cccc(N(C)C(=O)C2C(O)CCN2c2nc(C)cc(C(F)(F)F)c2C#N)c1 (stereo unspecified) + Cc1[nH]c2ccc(F)cc2c1-c1nc2c3cccnc3c3ncccc3c2[nH]1: 91.9
